These measurements were taken from paper PMC3794980.

Target: DRB5*0101 (Homo sapiens, UniProt P01903+Q30154)
Assay: biochemical
pIC50: −log10 of the molar value.
property.name: pIC50

[[record]]
query_smiles = "CC[C@H](C)[C@H](NC(=O)[C@H](CCC(=O)O)NC(=O)CNC(=O)[C@@H](NC(=O)[C@@H](NC(=O)[C@@H](NC(=O)[C@H](CCC(N)=O)NC(=O)[C@H](Cc1ccccc1)NC(=O)[C@@H](NC(=O)CNC(=O)[C@@H]1CCCN1C(=O)[C@H](CCSC)NC(=O)[C@@H](NC(=O)[C@H](CCC(N)=O)NC(=O)[C@@H](N)Cc1ccccc1)[C@@H](C)O)[C@@H](C)O)[C@@H](C)O)[C@@H](C)O)[C@@H](C)O)C(=O)O"
property_name = "pIC50"
obs_value = 5.56

[[record]]
query_smiles = "CC[C@H](C)[C@H](NC(=O)CNC(=O)[C@H](CO)NC(=O)CNC(=O)[C@H](CS)NC(=O)[C@H](CCCCN)NC(=O)[C@H](CC(C)C)NC(=O)[C@H](CCC(=O)O)NC(=O)[C@H](CCCCN)NC(=O)CNC(=O)[C@H](CCCCN)NC(=O)[C@H](Cc1c[nH]c2ccccc12)NC(=O)[C@H](CC(N)=O)NC(=O)[C@@H](NC(=O)[C@@H](N)C(C)C)[C@@H](C)CC)C(=O)O"
property_name = "pIC50"
obs_value = 4.80

[[record]]
query_smiles = "CC[C@H](C)[C@H](NC(=O)[C@H](Cc1c[nH]c2ccccc12)NC(=O)[C@H](Cc1ccc(O)cc1)NC(=O)CNC(=O)[C@H](CCSC)NC(=O)[C@H](CC(=O)O)NC(=O)[C@H](C)NC(=O)[C@H](Cc1c[nH]cn1)NC(=O)[C@@H](NC(=O)[C@H](C)N)C(C)C)C(=O)N[C@@H](CCC(=O)O)C(=O)N[C@@H](CO)C(=O)N[C@@H](CCC(N)=O)C(=O)N[C@@H](CCCCN)C(=O)N[C@@H](CC(N)=O)C(=O)O"
property_name = "pIC50"
obs_value = 4.98

[[record]]
query_smiles = "CC[C@H](C)[C@H](NC(=O)[C@H](C)NC(=O)[C@H](CC(N)=O)NC(=O)[C@H](C)NC(=O)[C@H](CC(C)C)NC(=O)[C@H](CCC(N)=O)NC(=O)[C@H](CCCNC(=N)N)NC(=O)[C@H](Cc1c[nH]cn1)NC(=O)[C@H](CCC(=O)O)NC(=O)[C@@H]1CCCN1)C(=O)N[C@@H](Cc1ccccc1)C(=O)N[C@@H](CCCCN)C(=O)N[C@@H](CC(C)C)C(=O)N[C@H](C(=O)N[C@@H](Cc1ccc(O)cc1)C(=O)N[C@@H](CCC(N)=O)C(=O)N[C@@H](CC(N)=O)C(=O)O)[C@@H](C)O"
property_name = "pIC50"
obs_value = 6.41

[[record]]
query_smiles = "CC[C@H](C)[C@H](NC(=O)[C@H](C)NC(=O)[C@@H](N)CCSC)C(=O)N[C@@H](CO)C(=O)NCC(=O)N[C@@H](CC(=O)O)C(=O)N[C@@H](CC(=O)O)C(=O)N[C@@H](CS)C(=O)N[C@H](C(=O)N[C@H](C(=O)N[C@@H](CCCCN)C(=O)N1CCC[C@H]1C(=O)N[C@H](C(=O)N[C@@H](CC(=O)O)C(=O)N[C@@H](CC(=O)O)C(=O)N[C@@H](CCCNC(=N)N)C(=O)N[C@@H](Cc1ccccc1)C(=O)O)[C@@H](C)CC)C(C)C)C(C)C"
property_name = "pIC50"
obs_value = 5.81

